biological target: Prostaglandin G/H synthase 1 (Homo sapiens) (UniProt P23219); assay: Inhibition of COX1 assessed as inhibition of arachidonic acid conversion to prostaglandin-E2 release at 10 uM
Sequence (P23219 whole entry): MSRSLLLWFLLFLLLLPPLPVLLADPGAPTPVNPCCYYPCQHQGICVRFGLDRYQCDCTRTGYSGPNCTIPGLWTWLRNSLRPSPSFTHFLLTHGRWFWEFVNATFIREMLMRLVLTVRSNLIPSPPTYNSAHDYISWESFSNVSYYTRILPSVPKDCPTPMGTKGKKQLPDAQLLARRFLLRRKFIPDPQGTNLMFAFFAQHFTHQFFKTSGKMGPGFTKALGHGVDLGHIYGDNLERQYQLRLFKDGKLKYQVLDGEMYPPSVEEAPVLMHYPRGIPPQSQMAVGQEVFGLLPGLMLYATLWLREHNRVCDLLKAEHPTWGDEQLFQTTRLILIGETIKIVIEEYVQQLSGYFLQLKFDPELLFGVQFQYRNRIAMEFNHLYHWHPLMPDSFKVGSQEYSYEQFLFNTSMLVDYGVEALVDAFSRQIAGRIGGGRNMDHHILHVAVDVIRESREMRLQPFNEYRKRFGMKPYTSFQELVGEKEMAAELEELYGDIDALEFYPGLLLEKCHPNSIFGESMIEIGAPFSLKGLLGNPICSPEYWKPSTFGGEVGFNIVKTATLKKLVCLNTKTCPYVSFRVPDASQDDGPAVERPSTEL
# inhibition per entry
Recorded Endpoint: inhibition

Mol	Recorded Endpoint	Observed Result
Cc1cc(C)cc(C(=O)Nc2cc(Br)c(O)c(Br)c2)c1	inhibition	< 5%
O=C(Nc1cc(Br)c(O)c(Br)c1)c1ccccc1	inhibition	< 5%
COc1cccc(OC)c1C(=O)Nc1cc(Br)c(O)c(Br)c1	inhibition	< 5%
O=C(Nc1cc(Br)c(O)c(Br)c1)c1cc(C(F)(F)F)ccc1C(F)(F)F	inhibition	< 5%
COc1ccc(OC)c(C(=O)Nc2cc(Br)c(O)c(Br)c2)c1	inhibition	< 5%
O=C(Nc1cc(Br)c(O)c(Br)c1)c1cc(O)cc(O)c1	inhibition	< 5%
O=C(Nc1cc(Br)c(O)c(Br)c1)c1cc(Br)c(O)c(Br)c1	inhibition	< 5%
O=C(Nc1cc(Br)c(O)c(Br)c1)c1ccccc1C(F)(F)F	inhibition	< 5%
Cc1cc(C(=O)Nc2cc(Br)c(O)c(Br)c2)cc(C)c1O	inhibition	< 5%
Cc1cccc(C(=O)Nc2cc(Br)c(O)c(Br)c2)c1	inhibition	< 5%
O=C(Nc1cc(Br)c(O)c(Br)c1)c1cc(F)ccc1F	inhibition	< 5%
O=C(Nc1cc(Br)c(O)c(Br)c1)c1ccccc1F	inhibition	< 5%
O=C(Nc1cc(Br)c(O)c(Br)c1)c1ccccc1Cl	inhibition	< 5%
O=C(Nc1cc(Br)c(O)c(Br)c1)c1c(Cl)cccc1Cl	inhibition	< 5%
O=C(Nc1cc(Br)c(O)c(Br)c1)c1cc(Cl)c(O)c(Cl)c1	inhibition	< 5%
O=C(O)c1cccc(C(=O)Nc2cc(Br)c(O)c(Br)c2)c1	inhibition	17%
Nc1cccc(C(=O)Nc2cc(Br)c(O)c(Br)c2)c1	inhibition	< 5%
O=C(Nc1cc(Br)c(O)c(Br)c1)c1cc(O)ccc1O	inhibition	< 5%
COc1ccccc1C(=O)Nc1cc(Br)c(O)c(Br)c1	inhibition	< 5%
COc1cc(OC)cc(C(=O)Nc2cc(Br)c(O)c(Br)c2)c1	inhibition	< 5%
COc1c(Cl)cc(C(=O)Nc2cc(Br)c(O)c(Br)c2)cc1Cl	inhibition	< 5%
Cc1ccc(C)c(C(=O)Nc2cc(Br)c(O)c(Br)c2)c1	inhibition	< 5%
O=C(Nc1cc(Br)c(O)c(Br)c1)c1cccc(F)c1	inhibition	< 5%
O=C(Nc1cc(Br)c(O)c(Br)c1)c1cccc(O)c1	inhibition	< 5%
